Data origin: patent US12617784B2

STUDY SYSTEM: AKT1 (Homo sapiens)
Sequence (P31749 whole entry): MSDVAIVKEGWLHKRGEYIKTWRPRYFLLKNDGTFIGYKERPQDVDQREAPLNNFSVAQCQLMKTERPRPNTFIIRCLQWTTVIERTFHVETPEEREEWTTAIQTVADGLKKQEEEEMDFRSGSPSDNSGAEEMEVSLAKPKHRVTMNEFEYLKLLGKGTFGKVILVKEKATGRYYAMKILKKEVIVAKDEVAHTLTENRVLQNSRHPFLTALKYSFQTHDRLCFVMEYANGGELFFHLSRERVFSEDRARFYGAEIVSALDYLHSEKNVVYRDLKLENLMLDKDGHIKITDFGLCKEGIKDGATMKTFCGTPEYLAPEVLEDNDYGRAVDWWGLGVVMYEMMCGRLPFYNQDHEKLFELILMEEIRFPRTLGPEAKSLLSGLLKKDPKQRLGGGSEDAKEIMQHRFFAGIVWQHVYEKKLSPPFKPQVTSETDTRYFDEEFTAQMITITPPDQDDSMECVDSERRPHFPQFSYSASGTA
# if measured IC50 < 0.2 µM: T  # else: F

Example results:
CC(C)NC[C@@H](C(=O)N1CC2CCC(C1)N2c1ncnc2c1[C@@H](C)OC(=O)N2)c1ccc(Cl)cc1 (single isomer, unassigned) [Example 33 Isomer 2]    F
CC(C)NC[C@@H](C(=O)N1CCN(c2ncnc3c2[C@@H]2C[C@@H]2C(=O)N3)CC1)c1ccc(Cl)cc1 (single isomer, unassigned) [Example 40 Isomer 1]    T
CC(C)NC[C@@H](C(=O)N1C2CCC1CN(c1ncnc3c1[C@H]1C[C@H]1C(=O)N3)C2)c1ccc(Cl)cc1 (single isomer, unassigned) [Example 39 Isomer 2]    T
CC(C)NC[C@@H](C(=O)N1CCN(c2ncnc3c2C[C@@H](C)C(=O)N3)CC1)c1ccc(Cl)cc1 (single isomer, unassigned) [Example 19 Isomer 1]    T

Now for another entry.
Please determine if CC(C)NC[C@@H](C(=O)N1C[C@@H]2CN(c3ncnc4c3[C@H](C)CC(=O)N4)C[C@@H]2C1)c1ccc(Cl)cc1 [Example 13 cis-isomer] is below 0.2 µM in terms of IC50.
F

* * *

Counter-ions that a name gives are not always drawn.
Quick record: pIC50, AKT3 (Homo sapiens).
Note on units: pIC50 is unitless, being -log10 of a concentration expressed in mol/L.

Worked examples follow.
CC(C)NC[C@@H](C(=O)N1CCN(c2ncnc3c2[C@@H]2C[C@@H]2C(=O)N3)CC1)c1ccc(Cl)cc1 (single isomer, unassigned) [Example 40 Isomer 1]    7.92
CC(C)NC[C@@H](C(=O)N1CCN(c2ncnc3c2[C@@H](C)OC(=O)N3)[C@H]2C[C@H]21)c1ccc(Cl)cc1 (single isomer, unassigned) [Example 34 Isomer 3]    6.63
CC(C)NC[C@@H](C(=O)N1C2CCC1CN(c1ncnc3c1[C@H](C)CC(=O)N3)C2)c1ccc(Cl)cc1    9.68
CC(C)NC[C@@H](C(=O)N1CC2CCC(C1)N2c1ncnc2c1[C@@H](C)OC(=O)N2)c1ccc(Cl)cc1 (single isomer, unassigned) [Example 33 Isomer 2]    7.26
CC(C)NC[C@@H](C(=O)N1C2CCC1CN(c1ncnc3c1[C@H](C)OC(=O)N3)C2)c1ccc(Cl)cc1 (single isomer, unassigned) [Example 32 Isomer 1]    9.39
CC(C)NC[C@@H](C(=O)N1CCN(c2ncnc3c2N(C)CC(=O)N3)CC1)c1ccc(Cl)cc1 [Example 20, hydrochloride]    9.40

Recorded pIC50 for CC(C)NC[C@@H](C(=O)N1C[C@@H]2CN(c3ncnc4c3[C@H](C)CC(=O)N4)C[C@@H]2C1)c1ccc(Cl)cc1 [Example 13 cis-isomer] with AKT3 (Homo sapiens), please?
8.18

Recorded pIC50 for CC(C)NC[C@@H](C(=O)N1CCN(c2ncnc3c2[C@H](C)OC(=O)N3)CC1)c1ccc(Cl)cc1 (single isomer, unassigned) [Example 23 Isomer 1] with AKT3 (Homo sapiens), please?
9.72

Recorded pIC50 for CC(C)NC[C@@H](C(=O)N1C2CCC1CN(c1ncnc3c1[C@@H]1C[C@@H]1C(=O)N3)C2)c1ccc(Cl)cc1 (single isomer, unassigned) [Example 39 Isomer 1] with AKT3 (Homo sapiens), please?
8.12

Recorded pIC50 for CC(C)NC[C@@H](C(=O)N1C2CCC1CN(c1ncnc3c1[C@@H](C)OC(=O)N3)C2)c1ccc(Cl)cc1 (single isomer, unassigned) [Example 32 Isomer 2] with AKT3 (Homo sapiens), please?
8.01

Recorded pIC50 for CC(C)NC[C@@H](C(=O)N1CCN(c2ncnc3c2C[C@@H](C)C(=O)N3)CC1)c1ccc(Cl)cc1 (single isomer, unassigned) [Example 19 Isomer 1] with AKT3 (Homo sapiens), please?
7.74

Recorded pIC50 for CC(C)NCC(C(=O)N1CCN(c2ncnc3c2[C@H](C)CC(=O)N3)C[C@@H]1C)c1ccc(Cl)cc1 (stereo in doubt) with AKT3 (Homo sapiens), please?
8.48

Recorded pIC50 for CC(C)NC[C@@H](C(=O)N1CCN(c2ncnc3c2[C@@H](C)OC(=O)N3)[C@@H]2C[C@@H]21)c1ccc(Cl)cc1 (single isomer, unassigned) [Example 34 Isomer 2] with AKT3 (Homo sapiens), please?
7.05

Recorded pIC50 for CC(C)NC[C@@H](C(=O)N1C2CCC1CN(c1ncnc3[nH]c(=O)c(=O)n(C)c13)C2)c1ccc(Cl)cc1 with AKT3 (Homo sapiens), please?
7.66

Recorded pIC50 for CC(C)NC[C@@H](C(=O)N1CCN(c2ncnc3c2[C@H](C)OC(=O)N3)[C@@H]2C[C@@H]21)c1ccc(Cl)cc1 (single isomer, unassigned) [Example 34 Isomer 1] with AKT3 (Homo sapiens), please?
7.35

Recorded pIC50 for CC(C)NC[C@@H](C(=O)N1C2CCC1CN(c1ncnc3c1N(CCO)CC(=O)N3)C2)c1ccc(Cl)cc1 with AKT3 (Homo sapiens), please?
8.74

Recorded pIC50 for CC(C)NC[C@@H](C(=O)N1CCN(c2ncnc3c2[C@H](C)OC(=O)N3)CC1)c1ccc(Cl)cc1 (single isomer, unassigned) [Example 24 Isomer 1] with AKT3 (Homo sapiens), please?
7.21

Recorded pIC50 for CC(C)NC[C@@H](C(=O)N1CC2CCC(C1)N2c1ncnc2c1[C@H](C)OC(=O)N2)c1ccc(Cl)cc1 (single isomer, unassigned) [Example 33 Isomer 1] with AKT3 (Homo sapiens), please?
9.70

* * *

TEST METHOD NOTES: Pharmacokinetic evaluation in mice after intragastric administration
Assay type: in vivo, mouse
CONDITION DESCRIPTION: male, ICR, mouse, in vivo, po, 10 mg/kg
Structures can show the parent of a compound that is named as a salt.
MEASURED ENDPOINT: Cmax
// return the numeric value with its unit appended

For CC(C)NC[C@@H](C(=O)N1C2CCC1CN(c1ncnc3c1N(C)CC(=O)N3)C2)c1ccc(Cl)cc1 [Example 21, formate] , what is its reported Cmax?
681 ng/mL

* * *

Quick record: log10(IC50), AKT1 (Homo sapiens, UniProt P31749).
Structures can show the parent of a compound that is named as a salt.
Response schema: value (number) is log10 of IC50 in units of nM.

CC(C)NC[C@@H](C(=O)N1CCN(c2ncnc3c2[C@H](C)OC(=O)N3)[C@@H]2C[C@@H]21)c1ccc(Cl)cc1 (single isomer, unassigned) [Example 34 Isomer 1]    2.27

For CC(C)NC[C@@H](C(=O)N1CCN(c2ncnc3c2CC(C)C(=O)N3)CC1)c1ccc(Cl)cc1 (stereo partly drawn) [Example 19, hydrochloride] , what is its reported log10(IC50)?
1.77

For CC(C)NC[C@@H](C(=O)N1C2CCC1CN(c1ncnc3c1N(CCO)CC(=O)N3)C2)c1ccc(Cl)cc1 , what is its reported log10(IC50)?
2.32

For CC(C)NC[C@@H](C(=O)N1CCN(c2ncnc3c2[C@H](C)OC(=O)N3)CC1)c1ccc(Cl)cc1 (single isomer, unassigned) [Example 23 Isomer 1] , what is its reported log10(IC50)?
0.18

For CC(C)NC[C@@H](C(=O)N1C2CCC1CN(c1ncnc3c1[C@H](C)CC(=O)N3)C2)c1ccc(Cl)cc1 , what is its reported log10(IC50)?
0.45

For CC(C)NC[C@@H](C(=O)N1CCN(c2ncnc3c2N(C)CC(=O)N3)C[C@@H]1C)c1ccc(Cl)cc1 , what is its reported log10(IC50)?
1.59

* * *

STUDY SYSTEM: AKT2 (Homo sapiens, UniProt P31751)
Construct: purchased Carna 01-102
Sequence (P31751 whole entry): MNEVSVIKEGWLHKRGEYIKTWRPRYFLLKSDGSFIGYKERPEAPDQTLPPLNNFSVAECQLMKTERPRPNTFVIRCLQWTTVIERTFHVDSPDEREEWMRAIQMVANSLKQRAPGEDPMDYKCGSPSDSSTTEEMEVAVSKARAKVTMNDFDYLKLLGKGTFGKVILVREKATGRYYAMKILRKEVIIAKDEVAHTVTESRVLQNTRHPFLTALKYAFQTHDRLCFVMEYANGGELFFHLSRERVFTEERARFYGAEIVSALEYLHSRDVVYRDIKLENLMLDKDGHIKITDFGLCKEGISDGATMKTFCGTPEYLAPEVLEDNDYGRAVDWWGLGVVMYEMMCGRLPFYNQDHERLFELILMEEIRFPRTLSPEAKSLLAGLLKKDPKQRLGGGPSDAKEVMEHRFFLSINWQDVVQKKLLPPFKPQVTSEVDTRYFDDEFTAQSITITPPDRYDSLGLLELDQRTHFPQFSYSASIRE
TEST METHOD NOTES: In vitro enzyme activity test (HTRF kinEASE TK), AKT2
Format: biochemical
CONDITION DESCRIPTION: ATP 20 μM, enzyme 0.1 ng/well, reaction 50 min
IC50 reference

Recorded IC50 for CC(C)NC[C@@H](C(=O)N1C2CCC1CN(c1ncnc3c1[C@H](C(F)(F)F)CC(=O)N3)C2)c1ccc(Cl)cc1 (single isomer, unassigned) [Example 24 Isomer 2] with AKT2 (Homo sapiens, UniProt P31751), please?
≥ 1 µM

Recorded IC50 for CC(C)NC[C@@H](C(=O)N1CC2CCC(C1)N2c1ncnc2c1[C@@H](C(F)(F)F)CC(=O)N2)c1ccc(Cl)cc1 (single isomer, unassigned) [Example 25 Isomer 1] with AKT2 (Homo sapiens, UniProt P31751), please?
≥ 1 µM

Recorded IC50 for CC(C)NC[C@@H](C(=O)N1CCN(c2ncnc3c2N(C)CC(=O)N3)[C@@H]2C[C@@H]21)c1ccc(Cl)cc1 (single isomer, unassigned) [Example 27 Isomer 2] with AKT2 (Homo sapiens, UniProt P31751), please?
≥ 1 µM

* * *

STUDY SYSTEM: AKT3 (Homo sapiens)
Sequence (Q9Y243 whole entry): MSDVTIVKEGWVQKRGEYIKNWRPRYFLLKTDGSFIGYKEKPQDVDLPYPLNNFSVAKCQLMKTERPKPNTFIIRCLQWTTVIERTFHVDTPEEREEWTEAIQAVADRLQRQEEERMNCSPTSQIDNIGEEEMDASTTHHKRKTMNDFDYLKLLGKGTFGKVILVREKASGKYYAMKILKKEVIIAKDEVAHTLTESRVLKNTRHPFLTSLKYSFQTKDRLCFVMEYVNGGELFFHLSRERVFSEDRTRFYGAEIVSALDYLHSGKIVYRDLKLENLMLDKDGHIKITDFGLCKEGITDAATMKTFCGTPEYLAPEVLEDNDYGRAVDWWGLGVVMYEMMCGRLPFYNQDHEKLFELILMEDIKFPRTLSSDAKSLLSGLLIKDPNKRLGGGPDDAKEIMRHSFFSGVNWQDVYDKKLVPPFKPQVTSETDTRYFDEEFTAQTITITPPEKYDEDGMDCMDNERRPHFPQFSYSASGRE
IC50 reference
Numeric answer only, unit nM assumed.

Worked examples follow.
CC(C)NC[C@@H](C(=O)N1CCN(c2ncnc3c2[C@H](C)OC(=O)N3)[C@H]2C[C@H]21)c1ccc(Cl)cc1 (single isomer, unassigned) [Example 34 Isomer 4]    0.12
CC(C)NC[C@@H](C(=O)N1CC2CCC(C1)N2c1ncnc2c1N(C)CC(=O)N2)c1ccc(Cl)cc1 [Example 26]    0.52
CC(C)NC[C@@H](C(=O)N1CCN(c2ncnc3c2[C@@H](C(F)(F)F)CC(=O)N3)CC1)c1ccc(Cl)cc1 (single isomer, unassigned) [Example 16 Isomer 1]    139

Now for the compound whose IC50 we want.
Recorded IC50 for CC(C)NC[C@@H](C(=O)N1CCN(c2ncnc3c2[C@H](C)CC(=O)N3)[C@H](C)C1)c1ccc(Cl)cc1 [Example 7] with AKT3 (Homo sapiens), please?
7.4
